These measurements were taken from PubChem BioAssay (NCATS).

- test.name: Cytometry Cell-Based qHTS for Inhibitors of the mTORC1 Signaling Pathway in MEF cells (AID 2668); further: potency means the concentration at half of the fitted maximal effect
- measurement.setup: mTORC1 pathway readout; series mostly up to 38.3 µM
Inconclusive results are not listed. Calls of active or inactive are those of the source. The call rests on the fitted dose curve; in most records, active means well fitted inhibition curve with a large enough effect; inconclusive means small, poorly fitted or top-dose-only effect; inactive means flat fitted curve, though single readings scatter.
value.kind: Potency

>>> value("CCCC(C)(COC(N)=O)COC(=O)NC(C)C (stereo unspecified)")
"inactive"
>>> value("CCCN1CCC[C@@H]2Cc3nc(N)ncc3C[C@H]21")
"inactive"
>>> value("COc1ccccc1N1CCNCC1")
"inactive"
>>> value("c1ccc2c(c1)OCC(C1=NCCN1)O2 (stereo unspecified)")
"4.65 µM (active)"
>>> value("CN(C)C(=O)C(CCN1CCC(O)(c2ccc(Cl)cc2)CC1)(c1ccccc1)c1ccccc1")
"13.1 µM (active)"
>>> value("CCCN1CCC[C@@H]2Cc3[nH]ncc3C[C@H]21")
"inactive"

---

- test.name: S16 Schwann cell viability assay (CellTiter-Glo assay) (AID 624031);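 further: native untransfected S16 rat Schwann cells; cellular ATP luminescence as a viability measure; nearly all actives have a fitted effect of over 70% in size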
- measurement.setup: S16 rat Schwann cells viability, 24 h; series mostly up to 57.5 µM
- Description: Charcot-Marie-Tooth-Association [CMTA] National Center for Advancing Translational Sciences [NCATS] […] Native S16 cells were seeded in white solid-bottom 1536 well plates at between 500-750 cells/6uL in DMEM medium containing 10% FBS, w/o phenol red. […] Then one volume of CellTiter-Glo assay reagent (Promega) was added to each well for cell viability measured by a ViewLux plate reader (PerkinElmer). […]
Inconclusive results are not listed. Calls of active or inactive are those of the source. The call rests on the fitted dose curve; in most records, active means well fitted cell-killing curve with a large enough effect; inconclusive means small, poorly fitted or top-dose-only effect, or effect the other way; inactive means flat fitted curve, though single readings scatter.
value.kind: outcome

>>> value("CC[C@@H](CO)NC(=O)[C@@H]1C=C2c3cccc4c3c(cn4C)C[C@H]2N(C)C1")
"inactive"
>>> value("NCC1(CC(=O)O)CCCCC1")
"inactive"
>>> value("CC(=O)[C@H]1CC[C@H]2[C@@H]3CC[C@H]4C[C@](C)(O)CC[C@]4(C)[C@H]3CC[C@]12C")
"inactive"
>>> value("NP(N)(=O)NC(=O)c1ccc(F)cc1")
"inactive"
>>> value("CCOP(=S)(OCC)Oc1cc(C)nc(C(C)C)n1")
"inactive"
>>> value("Clc1cccc(N2CCNCC2)c1")
"inactive"

---

- test.name: Validation screen for small molecules that induce DNA re-replication in MCF 10A normal breast cells (AID 463097); further: nearly all actives have a fitted effect of over 60% in size
- measurement.setup: MCF 10A cells, DNA re-replication phenotype imaging; series mostly up to 46.1 µM
Results filed as inconclusive are left out. The source made the active and inactive calls. The call rests on the fitted dose curve; in most records, active means well fitted activation curve with a large enough effect; inconclusive means small, poorly fitted or top-dose-only effect; inactive means flat fitted curve, though single readings scatter.
Classes used: True = active, False = inactive

>>> category("Cc1ccc(S(=O)(=O)N[C@@H](CCCCN)C(=O)CCl)cc1")
"False"
>>> category("CN1C[C@H](CNC(=O)OCc2ccccc2)C[C@@H]2c3cccc4c3c(cn4C)C[C@H]21")
"True"
>>> category("NCC(O)c1ccc(O)cc1 (stereo not drawn)")
"False"
>>> category("NCC1(CC(=O)O)CCCCC1")
"False"
>>> category("NCC(CC(=O)O)c1ccc(Cl)cc1 (stereo not drawn)")
"False"
>>> category("CCn1cc(C(=O)O)c(=O)c2ccc(C)nc21")
"False"
>>> category("CC(CCc1ccccc1)NC(C)C(O)c1ccc(O)cc1 (stereo not drawn)")
"False"
>>> category("N#CC(C#N)=Cc1ccc(O)c(O)c1")
"False"
>>> category("Cc1ncc(CNC(=O)N(CCCl)N=O)c(N)n1")
"False"
>>> category("CC(=O)[C@H]1CC[C@H]2[C@@H]3CC[C@H]4C[C@H](O)CC[C@]4(C)[C@H]3C(=O)C[C@]12C")
"False"
>>> category("C=C(C)[C@H]1Cc2c(ccc3c2O[C@@H]2COc4cc(OC)c(OC)cc4[C@@H]2C3=O)O1")
"True"
>>> category("CCCC(C)(COC(N)=O)COC(=O)NC(C)C (stereo not drawn)")
"False"
>>> category("c1ccc(C2CC2)c(OCC2=NCCN2)c1")
"False"
>>> category("COc1cc2c(c(OC)c1OC)-c1ccc(OC)c(=O)cc1[C@@H](NC(C)=O)CC2")
"True"
>>> category("COc1ccc(Cc2nccc3cc(OC)c(OC)cc23)cc1OC")
"False"
>>> category("Nc1ccncc1")
"False"
>>> category("O=C1NCN(c2ccccc2)C12CCN(CC1COc3ccccc3O1)CC2 (stereo not drawn)")
"False"
>>> category("Cc1cccc(C)c1NC1=NCCCS1")
"False"

---

- system.under.test: Glutathione peroxidase 1 (Homo sapiens) (UniProt P07203)
- Sequence (P07203 whole entry, looked up): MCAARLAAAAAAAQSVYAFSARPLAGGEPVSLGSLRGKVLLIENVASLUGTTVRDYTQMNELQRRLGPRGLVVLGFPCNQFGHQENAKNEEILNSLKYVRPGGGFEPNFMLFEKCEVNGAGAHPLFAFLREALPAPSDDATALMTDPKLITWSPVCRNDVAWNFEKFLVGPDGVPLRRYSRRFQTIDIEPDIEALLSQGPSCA
- test.name: Primary qHTS Assay for Inhibitors of Recombinant Selenoprotein Glutathione Peroxidase 1 (GPX1) (AID 1845191); further: nearly all actives have a fitted effect of over 65% in size; further: potency means the concentration at half of the fitted maximal effect
- measurement.setup: recombinant GPX1, GR-coupled NADPH fluorescence, 15 min; series mostly up to 48.8 µM
- Experimental: Assay Provider: Elias S.J. Arner MD PhD. Department of Medical Biochemistry and Biophysics Karolinska Institutet, Solna, Stockholm, Sweden […] 5; Detection; Fluorescence; ViewLux microplate reader, excitation 340 nm and emission 450 nm. […] 7; Detection; Fluorescence; ViewLux microplate reader, excitation 340 nm and emission 450 nm. […] 5. Initial fluorescence readout (t=0) at 340/450 nm was measured using a ViewLux multimodal detector (PerkinElmer, Waltham, MA). […]
Inconclusive results are not listed. The source made the active and inactive calls. The call rests on the fitted dose curve; in most records, active means well fitted inhibition curve with a large enough effect; inconclusive means small, poorly fitted or top-dose-only effect; inactive means flat fitted curve, though single readings scatter.
value.kind: Potency

>>> value("Cc1cc(SCc2sc(-c3ccc(C(F)(F)F)c(F)c3)nc2C)ccc1OCC(=O)O")
"12.8 µM (active)"
>>> value("CCCC1CCCCN1 (configuration not stated)")
"inactive"
>>> value("O=P1(NCCCl)OCCCN1CCCl (configuration not stated)")
"inactive"
>>> value("N#CC(C#N)=Cc1ccc(O)c(O)c1")
"inactive"
>>> value("COc1ccc(C(CN(C)C)C2(O)CCCCC2)cc1 (configuration not stated)")
"inactive"
>>> value("Cc1cccc(C)c1NC(=O)CN1CCCC1=O")
"inactive"
>>> value("Cc1cccc(C)c1NC1=NCCCS1")
"inactive"

---

- Tested on: ATS95
- test.name: qHTS profiling for inhibitors of Plasmodium falciparum proliferation (AID 504749); further: nearly all actives have a fitted effect of over 60% in size; further: potency means the concentration at half of the fitted maximal effect
- measurement.setup: P. falciparum in erythrocytes, SYBR Green DNA, 72 h; series mostly up to 28.7 µM
Inconclusive results are not listed. Activity calls are given as the source filed them. Calls follow the shape of the dose curve; as a rule, active = well fitted inhibition curve with a large enough effect; inconclusive = small, poorly fitted or top-dose-only effect; inactive = flat fitted curve, though single readings scatter.
value.kind: Potency

>>> value("CC1NCCOC1c1ccccc1 (configuration not stated)")
"inactive"
>>> value("Cc1ccc(-c2nc3ccc(C)cn3c2CC(=O)N(C)C)cc1")
"inactive"
>>> value("Cn1c(CCCC(=O)O)nc2cc(N(CCCl)CCCl)ccc21")
"inactive"
>>> value("NCC(CC(=O)O)c1ccc(Cl)cc1 (configuration not stated)")
"inactive"
>>> value("CCC(C(N)=O)N1CCCC1=O (configuration not stated)")
"inactive"
>>> value("NP(N)(=O)NC(=O)c1ccc(F)cc1")
"inactive"
>>> value("CC(=O)[C@H]1CC[C@H]2[C@@H]3CC[C@H]4C[C@](C)(O)CC[C@]4(C)[C@H]3CC[C@]12C")
"inactive"
>>> value("O=c1[nH]c2ccccc2n1C1CCN(CCCC(c2ccc(F)cc2)c2ccc(F)cc2)CC1")
"inactive"
>>> value("NCC1(CC(=O)O)CCCCC1")
"inactive"
>>> value("CCOP(=S)(OCC)Oc1cc(C)nc(C(C)C)n1")
"inactive"
>>> value("CCC1(C2=NCCN2)Cc2ccccc2O1 (configuration not stated)")
"8.91 µM (active)"
>>> value("CCC(COC(=O)c1cc(OC)c(OC)c(OC)c1)(c1ccccc1)N(C)C (configuration not stated)")
"inactive"
>>> value("CN1C[C@H](CNC(=O)OCc2ccccc2)C[C@@H]2c3cccc4c3c(cn4C)C[C@H]21")
"11.2 µM (active)"
>>> value("COc1ccccc1N1CCNCC1")
"inactive"
>>> value("Clc1ccc(COC(Cn2ccnc2)c2ccc(Cl)cc2Cl)cc1 (configuration not stated)")
"3.98 µM (active)"
>>> value("C=C1CC[C@@]2(O)[C@H]3Cc4ccc(O)c5c4[C@@]2(CCN3CC2CC2)[C@H]1O5")
"inactive"
>>> value("CC(=O)[C@H]1CC[C@H]2[C@@H]3CC[C@H]4C[C@H](O)CC[C@]4(C)[C@H]3C(=O)C[C@]12C")
"inactive"
>>> value("O=C(O)c1ccc2[nH]cc(CCCCN3CC=C(c4ccccc4)CC3)c2c1")
"inactive"
>>> value("CC(C)NCC(O)c1ccccc1Cl (configuration not stated)")
"11.2 µM (active)"
>>> value("Nc1ccncc1")
"inactive"
>>> value("c1ccc2c(c1)OCC(C1=NCCN1)O2 (configuration not stated)")
"inactive"
>>> value("CCN(C(C)=O)c1cccc(-c2ccnc3c(C#N)cnn23)c1")
"inactive"
>>> value("CCCC(C)(COC(N)=O)COC(=O)NC(C)C (configuration not stated)")
"inactive"
>>> value("Fc1ccc(C(OCCN2CCN(CCCc3ccccc3)CC2)c2ccc(F)cc2)cc1")
"7.94 µM (active)"
>>> value("O=C(NC(O)C(Cl)(Cl)Cl)NC(O)C(Cl)(Cl)Cl (configuration not stated)")
"inactive"
>>> value("CC(=O)Nc1cc([As](=O)(O)O)ccc1O")
"inactive"
>>> value("COc1ccc(C(=O)c2c(C)n(CCN3CCOCC3)c3ccccc23)cc1")
"inactive"
>>> value("NCC(O)c1ccc(O)cc1 (configuration not stated)")
"inactive"
>>> value("O=C1NCN(c2ccccc2)C12CCN(CC1COc3ccccc3O1)CC2 (configuration not stated)")
"inactive"
>>> value("NN=C(N)N")
"inactive"
>>> value("CC[N+]1(C)CCCC(OC(=O)C(O)(c2ccccc2)c2ccccc2)C1 (configuration not stated)")
"inactive"
>>> value("C[C@]12C/C(=C/O)C(=O)C[C@@H]1CC[C@@H]1[C@@H]2CC[C@@]2(C)[C@H]1CC[C@]2(C)O")
"inactive"
